Where do these numbers come from? They come from PubChem BioAssay.

ASSAY: splicing luciferase reporter signal modulators, primary screen, spliceosome inhibition project, cell-based, HEK293, splice +/- reporter (AID 1101);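 also: HEK293 cells carrying a splicing-competent luciferase reporter gene; test concentration not given here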
DETAILS: luminescence, 24 h, higher = more signal, called active from +8 up or from −8 down
Decide by z-score: equal to or exceeding -1 means true, less means false.

[
  {
    "COMPOUND": "CCCCCN1CC=CC23O[C@@H]4/C=C\\CCCOC(=O)C4[C@H]2C(=O)N(CCO)[C@@H]3C1=O (some centres not stated)",
    "ASSIGNED_CATEGORY": "false"
  }
]

Input: # check: z-score of COc1ccc(NN2C(C(O)c3ccccc3)C=CC3C(=O)N(C4CCCCC4)C(=O)C32)cc1 (configuration not stated) is greater than or equal to -1
Output: false

Input: Is it the case that "COCCOC(=O)N1C(=O)[C@@]2(c3cc(C#CCC(C(=O)OC)C(=O)OC)ccc31)[C@H](C(N)=O)[C@H]1C(=O)O[C@H](c3ccccc3)[C@H](c3ccccc3)N1[C@@H]2c1ccccc1OCCO" has z-score reaching or exceeding -1?
Output: false

###

ASSAY: P. aeruginosa biofilm formation inhibitors, primary screen, strain PAO1, LB-PBS medium, absorbance 600 nm (AID 1176); also: test concentration not given here
DETAILS: P. aeruginosa PAO1 growth/biofilm, A600, 12 h; higher = more signal
Give z-score for every item shown.
Give bare numbers.

See these solved cases before continuing.
[
  {
    "COMPOUND": "CC(C)(C)OC(=O)CC[C@]1(C(=O)N2CCOCC2)COC(c2ccc(OCCCO)cc2)=N1",
    "z-score": 0.149
  },
  {
    "COMPOUND": "COC(=O)[C@H](Cc1ccccc1)N1CC(C)(OC)O[C@@H](Cc2ccccc2)[C@H]1/C=C/C1CC1 (some centres not stated)",
    "z-score": -0.532
  },
  {
    "COMPOUND": "CCOC(=O)C1=C[C@@H](C(C)(C)C)N(S(=O)(=O)c2ccc(C)cc2)[C@H]1c1ccc(OC)cc1",
    "z-score": -0.473
  },
  {
    "COMPOUND": "CCCCC(=C=CC[C@@H](O)c1ccc(OCCO)cc1)CCO",
    "z-score": -0.0585
  },
  {
    "COMPOUND": "C=C(C(=O)CC[C@@H](OC(=O)c1ccccc1-c1ccccc1C(=O)O)c1ccc(OCCO)cc1)C(C)C",
    "z-score": 0.85
  }
]

# map each compound to its z-score
1. COc1ccc([Si](C)(C)[C@H]2[C@H](CC(=O)N3CCC[C@H]3CO)O[C@@]3(C(=O)N(C)c4ccccc43)[C@@H]2C)cc1
2. CN1C(=O)C2CC=C(C3=CCO[C@@H]3[C@H]3CCCN3S(=O)(=O)c3ccccc3[N+](=O)[O-])CC2C1=O (some centres not stated)

Output:
1. 1.32
2. 0.425

###

ASSAYED_TARGET: Epidermal growth factor receptor (Homo sapiens)
ASSAY: EGFR binders on small-molecule microarrays, primary screen, biochemical, small-molecule microarray, 635 nm fluorescence (AID 1104);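 also: score merges 667 nm emission intensity with spot signal to noise over triplicate slides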
DETAILS: EGFR binding, higher = more signal
REPORTED_ENDPOINT: composite z-score
Numbers only.

Some molecules with recorded composite z-score:
[
  {
    "MOLECULE": "CC(C)C(=C=CC[C@H](O)c1cccc(OCCO)c1)C[C@H](O)c1ccccn1",
    "composite z-score": -0.387
  },
  {
    "MOLECULE": "COc1ccc(C(O)C2C=CC3C(=O)N(C)C(=O)C3N2Nc2ccccc2)cc1 (stereo not given)",
    "composite z-score": 0.468
  },
  {
    "MOLECULE": "C=CCOC(=O)[C@H]1[C@@H]2C(=O)O[C@@H](c3ccccc3)[C@@H](c3ccccc3)N2[C@@H](c2ccc(OCCOC(=O)[C@@H]3C[C@@H]4C(=O)N[C@@H](Cc5ccccc5)C(=O)N4[C@@H]3c3ccc(O)cc3)cc2)[C@]12C(=O)Nc1ccc(I)cc12",
    "composite z-score": 0.654
  }
]

Give composite z-score for all molecules that follow.
1. COC(=O)[C@@]1(Cc2ccc(F)cc2)[C@@H]2C(=CC(=O)[C@H]2CC(=O)C(=O)N2CCCC2)CN1C(=O)c1ccccc1
2. COCCOC(=O)N1C(=O)[C@@]2(c3cc(C#CCNC(N)=O)ccc31)[C@H](c1ccccc1OCCO)N1[C@H](c3ccccc3)[C@H](c3ccccc3)OC(=O)[C@H]1[C@@H]2C(=O)N1CCCCCCC1
3. CN1C(=O)C2C=CC(C(O)c3cccs3)N(N(c3ccccc3)c3ccccc3)C2C1=O (stereo not given)

Output:
1: 1.36; 2: 0.5; 3: -0.665
